Experiment: MITF transcriptional activity suppression – cell-based, SK-MEL-5, single point, luciferase, primary screen (AID 488899)
Settings: SK-MEL-5 TRPM1 promoter luciferase, 24 h; at 12.5 µM; hits give high values
In all, about 330,000 compounds went through this assay and about 2,800 (0.85%) were called active. Only a selection was taken, and actives are over-represented in it overall.
measurement-label: inhibition (%)
Answer with a number only, understood to be in %.

Solved entries:
{"compound": "CCOc1ccc(NC(=O)CSc2ncnc3c2sc2ccccc23)cc1", "inhibition / %": 4.52}
{"compound": "Cc1ccc(CN(CC(=O)NCC2CCCO2)S(=O)(=O)c2ccc(C)cc2)cc1 (stereo unspecified)", "inhibition / %": -1.73}
{"compound": "COc1ccc(C(=O)Nc2cccc(NC(=O)c3ccc(OC)cc3OC)n2)c(OC)c1", "inhibition / %": -13.3}

Specify measured inhibition for O=[N+]([O-])c1cccc(C=NN=Cc2ccccc2O)c1 . -42.5

Please give the documented inhibition of COc1cc(SC)ccc1C(=O)Nc1nc(C)cs1 88.5
